The following molecules are listed with their measured spectrum intensity of the compound in the SEC spin column filtrate values.
- study.system: FLJ41991-derived protein (Homo sapiens, UniProt P57764, E293G)
- Construct: His-tag (N); made in house; host or cells: Escherichia coli BL21star(DE3)pLysS (pDEST17)
- Sequence (P57764 265-484 E293G): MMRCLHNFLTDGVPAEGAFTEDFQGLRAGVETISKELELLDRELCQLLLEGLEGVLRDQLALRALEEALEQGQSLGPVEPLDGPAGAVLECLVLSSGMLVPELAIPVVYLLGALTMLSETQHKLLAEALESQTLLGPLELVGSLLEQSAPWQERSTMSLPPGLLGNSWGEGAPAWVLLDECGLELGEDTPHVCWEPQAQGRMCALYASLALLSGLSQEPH
- measurement.protocol: SEC/MS interaction analysis, FLJ41991-derived protein (GSDMDC1)
- Assay type: binding
- experimental.setup: compound 62.5 μM, protein 25 μM
Write the value as a bare number.

// solved cases for spectrum intensity of the compound in the SEC spin column filtrate follow
>>> numeric_value("CCN(CC)CCCC(C)Nc1c2ccc(Cl)cc2nc2ccc(OC)cc12 (stereo not shown) [quinacrine]")
1854355
>>> numeric_value("O=C(c1ccc(OCCN2CCCCC2)cc1)c1c(-c2ccc(O)cc2)sc2cc(O)ccc12 [raloxifene]")
3195671
>>> numeric_value("OCCN1CCN(CCCN2c3ccccc3Sc3ccc(C(F)(F)F)cc32)CC1 [fluphenazine]")
6405132
>>> numeric_value("CN1[C@@H]2CC[C@H]1C[C@@H](OC(c1ccccc1)c1ccccc1)C2 [benztropine]")
3061987
>>> numeric_value("CC(C)(C)c1ccc(C(O)CCCN2CCC(C(O)(c3ccccc3)c3ccccc3)CC2)cc1 (stereo not shown) [terfenadine]")
9678283

Fetch value of spectrum intensity of the compound in the SEC spin column filtrate on FLJ41991-derived protein (Homo sapiens, UniProt P57764, E293G) for COc1ccc(CCN2CCC(Nc3nc4ccccc4n3Cc3ccc(F)cc3)CC2)cc1 [astemizole] .
5171023

Fetch value of spectrum intensity of the compound in the SEC spin column filtrate on FLJ41991-derived protein (Homo sapiens, UniProt P57764, E293G) for OC(c1cc(C(F)(F)F)nc2c(C(F)(F)F)cccc12)C1CCCCN1 (stereo not shown) [mefloquine] .
4385022

Fetch value of spectrum intensity of the compound in the SEC spin column filtrate on FLJ41991-derived protein (Homo sapiens, UniProt P57764, E293G) for OCCN1CCN(CCCN2c3ccccc3Sc3ccc(Cl)cc32)CC1 [perphenazine] .
2872912

Fetch value of spectrum intensity of the compound in the SEC spin column filtrate on FLJ41991-derived protein (Homo sapiens, UniProt P57764, E293G) for CN(C)C(=O)C(CCN1CCC(O)(c2ccc(Cl)cc2)CC1)(c1ccccc1)c1ccccc1 [loperamide] .
9496680

Fetch value of spectrum intensity of the compound in the SEC spin column filtrate on FLJ41991-derived protein (Homo sapiens, UniProt P57764, E293G) for CN(C)CC/C=C1/c2ccccc2Sc2ccc(Cl)cc21 [chlorprothixene] .
2564975

---

- study.system: FLJ41991-derived protein (Homo sapiens, UniProt P57764, E293G)
- Construct: His-tag (N); made in house; host or cells: Escherichia coli BL21star(DE3)pLysS (pDEST17)
- measurement.protocol: SEC/MS interaction analysis, FLJ41991-derived protein (GSDMDC1)
- Assay type: binding
- experimental.setup: compound 12.5 μM, protein 0 μM
The following compounds are listed with their measured spectrum intensity of the compound in the SEC spin column filtrate values.
Write the value as a bare number.

>>> numeric_value("O=C(c1ccc(OCCN2CCCCC2)cc1)c1c(-c2ccc(O)cc2)sc2cc(O)ccc12")
19251

Specify measured spectrum intensity of the compound in the SEC spin column filtrate for CCN(CC)CCCC(C)Nc1c2ccc(Cl)cc2nc2ccc(OC)cc12 (stereo not shown) .
36421

Specify measured spectrum intensity of the compound in the SEC spin column filtrate for "OCCN1CCN(CCCN2c3ccccc3Sc3ccc(Cl)cc32)CC1" .
23424

Specify measured spectrum intensity of the compound in the SEC spin column filtrate for CC(C)(C)c1ccc(C(O)CCCN2CCC(C(O)(c3ccccc3)c3ccccc3)CC2)cc1 (stereo not shown) .
26814

Specify measured spectrum intensity of the compound in the SEC spin column filtrate for "COc1ccc(CCN2CCC(Nc3nc4ccccc4n3Cc3ccc(F)cc3)CC2)cc1" .
24899

Specify measured spectrum intensity of the compound in the SEC spin column filtrate for CN(C)C(=O)C(CCN1CCC(O)(c2ccc(Cl)cc2)CC1)(c1ccccc1)c1ccccc1 [loperamide] .
75412

Specify measured spectrum intensity of the compound in the SEC spin column filtrate for "CN1[C@@H]2CC[C@H]1C[C@@H](OC(c1ccccc1)c1ccccc1)C2" .
143943

Specify measured spectrum intensity of the compound in the SEC spin column filtrate for "CN(C)CC/C=C1/c2ccccc2Sc2ccc(Cl)cc21" .
178622

Specify measured spectrum intensity of the compound in the SEC spin column filtrate for OC(c1cc(C(F)(F)F)nc2c(C(F)(F)F)cccc12)C1CCCCN1 (stereo not shown) .
16334

Specify measured spectrum intensity of the compound in the SEC spin column filtrate for "OCCN1CCN(CCCN2c3ccccc3Sc3ccc(C(F)(F)F)cc32)CC1" .
87861
